# measured target: T1, ECF37_2513
# T1 chain: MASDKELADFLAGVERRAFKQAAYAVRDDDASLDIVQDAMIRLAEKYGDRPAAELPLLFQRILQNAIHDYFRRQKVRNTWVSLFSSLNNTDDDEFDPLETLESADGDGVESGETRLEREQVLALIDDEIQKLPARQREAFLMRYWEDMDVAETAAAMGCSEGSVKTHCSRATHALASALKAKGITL
The following binders are shown together with reported fold repression values.
API note: the answer field is a bare number with no unit suffix.

binder	fold repression
AS03_1198 (protein) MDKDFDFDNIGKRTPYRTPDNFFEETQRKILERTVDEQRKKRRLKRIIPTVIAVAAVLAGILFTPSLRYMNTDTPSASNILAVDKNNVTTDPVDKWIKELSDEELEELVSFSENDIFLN	1.07

Field: next binder
Input AS31_34 (protein) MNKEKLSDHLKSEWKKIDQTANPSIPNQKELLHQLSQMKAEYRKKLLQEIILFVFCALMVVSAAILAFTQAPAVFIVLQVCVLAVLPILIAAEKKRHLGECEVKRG . Output fold repression: 3.38
